- System: NRG-mice bearing LNCaP tumors
- measurement_protocol: Biodistribution (and PET/SPECT imaging) in NRG-mice bearing LNCaP tumors
- Assay type: in vivo
- settings: 72 h p.i., Avg
*1 amine or outer side, *2 acyl side, *3 side chain or, on linkers, in order; H or OH if unused. Where a SMILES comes first, the peptide text is derived from it. [ ]: non-standard residue; d: D form. The star is where a group is joined. ξ: configuration not given here. ξLys(Nα-CO-ξAad) = O=C(O)CCCC(NC(=O)NC(CCCCN*)C(=O)O)C(=O)O; Butanoyl(4-(4-NO2Ph)) = O=C(CCCc1ccc([N+](=O)[O-])cc1)*; DOTA = O=C(O)CN1CCN(CC(=O)O)CCN(CC(=O)*)CCN(CC(=O)O)CC1; Butanoyl(4-(4-MeO-phenyl)) = COc1ccc(CCCC(=O)*)cc1; ξAla(9-anthryl) = NC(Cc1c2ccccc2cc2ccccc12)C(=O)O; X2 = O=C(NC(CCCCN*)C(=O)O)NC(CC(F)C(=O)O)C(=O)O; X1 = O=C(C1CCC(CN[*:1])CC1)[*:2]; ξK = NCCCCC(N)C(=O)O
reported_metric: Biodistribution: Heart (% ID/g)
Report the figure in % ID/g without appending any unit label.

Form field: reported Biodistribution: Heart of COc1ccc(CCCC(=O)NCC(=O)NC(CCCCNC(=O)CN2CCN(CC(=O)[O-])CCN(CC(=O)[O-])CCN(CC(=O)[O-])CC2)C(=O)NCC(=O)NCC2CCC(C(=O)NC(Cc3c4ccccc4cc4ccccc34)C(=O)NCCCCC(NC(=O)NC(CC(F)C(=O)O)C(=O)O)C(=O)O)CC2)cc1.[177Lu+3] (stereo not shown) [^177Lu-CCZ02008] ({Butanoyl(4-(4-MeO-phenyl))}-G[ξK](DOTA)G[X1][ξAla(9-anthryl)]-X2) 0.37

Next record, please: O=C([O-])CN1CCN(CC(=O)[O-])CCN(CC(=O)NCCCCC(NC(=O)CNC(=O)CCCc2ccc([N+](=O)[O-])cc2)C(=O)NCC(=O)NCC2CCC(C(=O)NC(Cc3c4ccccc4cc4ccccc34)C(=O)NCCCCC(NC(=O)NC(CCCC(=O)O)C(=O)O)C(=O)O)CC2)CCN(CC(=O)[O-])CC1.[225Ac+3] (stereo not shown) [^225Ac-CCZ02017] ({Butanoyl(4-(4-NO2Ph))}-G[ξK](DOTA)G[X1][ξAla(9-anthryl)]-{ξLys(Nα-CO-ξAad)}) 0.16

Next record, please: O=C([O-])CN1CCN(CC(=O)[O-])CCN(CC(=O)NCCCCC(NC(=O)CNC(=O)CCCc2ccc([N+](=O)[O-])cc2)C(=O)NCC(=O)NCC2CCC(C(=O)NC(Cc3c4ccccc4cc4ccccc34)C(=O)NCCCCC(NC(=O)NC(CCCC(=O)O)C(=O)O)C(=O)O)CC2)CCN(CC(=O)[O-])CC1.[177Lu+3] (stereo not shown) [^177Lu-CCZ02017] ({Butanoyl(4-(4-NO2Ph))}-G[ξK](DOTA)G[X1][ξAla(9-anthryl)]-{ξLys(Nα-CO-ξAad)}) 0.10

Next record, please: COc1ccc(CCCC(=O)NCC(=O)NC(CCCCNC(=O)CN2CCN(CC(=O)[O-])CCN(CC(=O)[O-])CCN(CC(=O)[O-])CC2)CC(=O)NCC2CCC(C(=O)NC(Cc3c4ccccc4cc4ccccc34)C(=O)NCCCCC(NC(=O)NC(CC(F)C(=O)O)C(=O)O)C(=O)O)CC2)cc1.[177Lu+3] (stereo not shown) [^177Lu-CCZ02019] 0.18
